Target: PD-L1 His protein / PD-1 Fc protein (Homo sapiens, UniProt Q9NZQ7)
Sequence (Q9NZQ7 19-238 limits assumed): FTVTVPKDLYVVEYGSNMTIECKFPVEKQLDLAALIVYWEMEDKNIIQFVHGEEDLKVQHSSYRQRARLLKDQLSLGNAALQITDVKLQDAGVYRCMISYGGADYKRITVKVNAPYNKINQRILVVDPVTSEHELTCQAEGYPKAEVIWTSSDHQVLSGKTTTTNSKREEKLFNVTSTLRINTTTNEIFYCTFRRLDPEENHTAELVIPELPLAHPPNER
Assay: HTRF Assay (PD-1/PD-L1 interaction)
Conditions: PD-L1 His 6 nM, PD-1 Fc 6 nM
Protocol: PD-L1 His protein was prepared and added at the final concentration of 6 nM in the White opaque 384 well plate (Corning cat #3824BC). PD-L1 small molecule inhibitors were diluted by 3-fold starting from 20 μM and a final concentration of 0.001 μM and added to the well. PD-1 Fc protein was added at the final concentration of 6 nM. […] The plate was read using PerkinElmer Envision plate reader and data was analyzed by Prism 6 software.
Outcome Measure: pIC50
pIC50 is a log-scale quantity: -log10 of the concentration expressed in molar.

Incoming: Supply measured pIC50 of COc1nc(-c2cccc(-c3cccc(-c4ccc5nn(CCO)c(=O)n5c4)c3Cl)c2Cl)ccc1CNC[C@@H]1CCC(=O)N1 [Example 239] in your reply.
Outgoing: 10.00

Incoming: Supply measured pIC50 of COc1nc(-c2cccc(-c3cccc(-c4ccn5c(=O)c(CNC[C@@H]6CCC(=O)N6)cnc5c4)c3Cl)c2Cl)ccc1CNCCNC(C)=O [Example 103] in your reply.
Outgoing: 8.30

Incoming: Supply measured pIC50 of COc1nc(-c2cccc(-c3cccc(-c4ccn5c(=O)c(CNC[C@@H]6CCC(=O)N6)c(C)nc5c4)c3Cl)c2Cl)cc(F)c1CNC[C@@H]1CCC(=O)N1 [Example 404] in your reply.
Outgoing: 10.00

Incoming: Supply measured pIC50 of COc1nc(-c2cccc(-c3cccc(-c4ccn5c(=O)c(CN6CC(C(=O)O)C6)cnc5c4)c3Cl)c2Cl)ccc1CNCCO [Example 188] in your reply.
Outgoing: 10.00

Incoming: Supply measured pIC50 of Cc1c(-c2ccn3c(=O)c(CNCCO)cnc3c2)cccc1-c1cccc(-c2ccn3c(=O)c(CNCCO)cnc3c2)c1C [Example 15] in your reply.
Outgoing: 7.22

Next:
Incoming: Supply measured pIC50 of Cc1c(-c2ccn3c(=O)c(CNC[C@@H]4CCC(=O)N4)cnc3c2)cccc1-c1cccc(-c2ccc(CNC[C@@H]3CCC(=O)N3)cn2)c1Cl [Example 61] in your reply.
Outgoing: 7.80

Incoming: Supply measured pIC50 of COc1nc(-c2cccc(-c3cccc(-c4ccc5c(CNC[C@H](C)OC)cn(C)c5n4)c3Cl)c2Cl)ccc1CNC[C@@H]1CCC(=O)N1 [Example 445] in your reply.
Outgoing: 6.34

Incoming: Supply measured pIC50 of CNC(=O)[C@H]1CCN(Cc2cnc3cc(-c4cccc(-c5cccc(-c6ccc(CNC[C@@H]7CCC(=O)N7)c(OC)n6)c5Cl)c4Cl)ccn3c2=O)C1 [Example 257] in your reply.
Outgoing: 8.72

Incoming: Supply measured pIC50 of COc1nc(-c2cccc(-c3cccc(-c4ccc5nc(CN[C@H]6C[C@H](O)C6)n(C)c5n4)c3Cl)c2Cl)ccc1CN[C@H]1C[C@H](O)C1 [Example 315] in your reply.
Outgoing: 9.40

Incoming: Supply measured pIC50 of Cn1cc(CNC[C@@H]2CCC(=O)N2)c2ccc(-c3cccc(-c4cccc(-c5ccn6c(=O)c(CNC[C@@H]7CCC(=O)N7)cnc6c5)c4Cl)c3Cl)nc21 [Example 416] in your reply.
Outgoing: 7.15

Incoming: Supply measured pIC50 of COc1cc(-c2cccc(-c3cccc(-c4ccn5c(=O)c(CNC[C@@H]6CCC(=O)N6)cnc5c4)c3Cl)c2Cl)nc(Cl)c1CNC[C@@H]1CCC(=O)N1 [Example 431] in your reply.
Outgoing: 6.74

Incoming: Supply measured pIC50 of COc1nc(-c2cccc(-c3cccc(-c4cc5c(=O)n(C)c(CNC[C@@H]6CCCO6)nn5c4)c3Cl)c2Cl)ccc1CNC[C@@H]1CCC(=O)N1 [Example 474] in your reply.
Outgoing: 7.68

Incoming: Supply measured pIC50 of COc1nc(-c2cccc(-c3cccc(-c4ccn5c(=O)c(CN(C)C[C@@H]6CCC(=O)N6)cnc5c4)c3C)c2Cl)ccc1CNC[C@@H]1CCC(=O)N1 [Example 54] in your reply.
Outgoing: 8.15

Incoming: Supply measured pIC50 of COc1cc(Cl)c(CNC[C@H]2CCC(=O)N2)c(-c2cccc(-c3cccc(-c4ccn5c(=O)c(CNC[C@@H]6CCC(=O)N6)cnc5c4)c3Cl)c2Cl)n1 [Example 337] in your reply.
Outgoing: 7.33

Incoming: Supply measured pIC50 of Cc1c(COc2cc(OCc3cncc(C#N)c3)c(CNCCO)cc2Cl)cccc1-c1cccc(-c2ccc3c(c2)N(C)C(=O)CCC3NCCO)c1C (centres unmarked) [Example 22] in your reply.
Outgoing: 8.22

Incoming: Supply measured pIC50 of COc1nc(-c2cccc(-c3cccc(-c4ccn5c(=O)c(CNCC(F)(F)CO)cnc5c4)c3Cl)c2Cl)ccc1CNC[C@@H]1CCC(=O)N1 [Example 300] in your reply.
Outgoing: 6.89

Incoming: Supply measured pIC50 of COc1nc(-c2cccc(-c3cccc(-c4ccn5c(=O)c(CNC[C@@H]6CCC(=O)N6)c(C)nc5c4)c3Cl)c2Cl)ccc1CNC[C@@H]1CCC(=O)N1 [Example 164] in your reply.
Outgoing: 8.89

Incoming: Supply measured pIC50 of COc1nc(-c2cccc(-c3cccc(-c4ccn5c(=O)c(CNCCN6CCCC6=O)cnc5c4)c3Cl)c2Cl)ccc1CNCCN1CCCC1=O [Example 321] in your reply.
Outgoing: 9.70

Incoming: Supply measured pIC50 of COc1nc(-c2cccc(-c3cccc(-c4ccn5c(=O)c(CN[C@H]6C[C@](C)(O)C6)c(OC)nc5c4)c3Cl)c2Cl)ccc1CNC[C@@H]1CCC(=O)N1 [Example 348] in your reply.
Outgoing: 8.66

Incoming: Supply measured pIC50 of Cc1c(COc2cc(OCc3cncc(C#N)c3)c(CNC[C@@H]3CCC(=O)N3)cc2Cl)cccc1-c1cccc(-c2ccn3c(=O)c(CNC[C@@H]4CCC(=O)N4)cnc3c2)c1C [Example 12] in your reply.
Outgoing: 9.52

Incoming: Supply measured pIC50 of COc1nc(-c2cccc(-c3cccc(-c4ccn5c(=O)c(CNC6(CC(=O)O)CC6)cnc5c4)c3Cl)c2Cl)ccc1CNC[C@@H]1CCC(=O)N1 [Example 139] in your reply.
Outgoing: 9.40

Incoming: Supply measured pIC50 of COc1nc(-c2cccc(-c3cccc(-c4cnc5c(Cl)c(CNC[C@@H]6CCC(=O)N6)sc5c4)c3Cl)c2Cl)ccc1CNC[C@@H]1CCC(=O)N1 [Example 123] in your reply.
Outgoing: 9.70

Incoming: Supply measured pIC50 of COc1nc(-c2cccc(-c3cccc(-c4cc5c(=O)n(C)c(CNC6CCN(C(C)=O)CC6)nn5c4)c3Cl)c2Cl)ccc1CNC[C@@H]1CCC(=O)N1 [Example 457] in your reply.
Outgoing: 6.72
